molecular target: Cytochrome P450 2D6 (Homo sapiens) (UniProt P10635); assay: Cytochrome panel assay with activity outcomes; conditions: recombinant CYP, pro-luciferin dealkylation, luminescence, p450-cyp2d6; series mostly up to 57.1 µM
Sequence (P10635 whole entry, looked up): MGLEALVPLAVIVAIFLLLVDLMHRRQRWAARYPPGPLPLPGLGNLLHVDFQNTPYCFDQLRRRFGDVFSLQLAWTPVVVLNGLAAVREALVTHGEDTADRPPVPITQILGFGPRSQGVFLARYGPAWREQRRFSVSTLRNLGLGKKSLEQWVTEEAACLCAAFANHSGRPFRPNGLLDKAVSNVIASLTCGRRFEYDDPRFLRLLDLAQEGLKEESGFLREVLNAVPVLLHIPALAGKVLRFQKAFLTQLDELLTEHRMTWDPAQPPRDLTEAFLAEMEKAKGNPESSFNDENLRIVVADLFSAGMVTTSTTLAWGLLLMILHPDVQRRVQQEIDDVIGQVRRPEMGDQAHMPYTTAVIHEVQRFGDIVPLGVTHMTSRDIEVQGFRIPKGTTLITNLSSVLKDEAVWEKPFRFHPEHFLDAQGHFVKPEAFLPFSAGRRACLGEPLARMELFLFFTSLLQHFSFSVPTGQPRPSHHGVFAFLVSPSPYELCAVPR
The campaign covered roughly 16,000 compounds. About 2,600 (16%) were called active. About 20% were inconclusive and are not listed. Calls come from the whole dose curve; as a rule, active = well fitted curve in the direction sought with a large enough effect; inconclusive = small, poorly fitted or top-dose-only effect, or effect the other way; inactive = no such curve, though single readings can be large or run the other way. Only a sample is shown.
Select the matching outcome among active, inactive

COc1ccc2nc(SCC(=O)NN)cc(C)c2c1 | inactive
O=C(Nc1nnc(SCc2ccc(Cl)cc2)s1)c1ccco1 | inactive
COC(=O)[C@@]1(Cc2ccc(OC)cc2)[C@H]2c3cc(C(=O)N4CCCC4)n(CCc4c[nH]c5ccc(O)cc45)c3C[C@H]2CN1C(=O)c1ccccc1 | inactive
O=C(Nc1cccc(-c2nc3ncccc3o2)c1)c1sc2ccccc2c1Cl | inactive
NC(N)=NC(N)=Nc1ccccc1 | inactive

Exam item: Hello, I am checking results. What call was entered for `O=C(CSc1ccc(Cl)cc1)Nc1cccc(-c2nc3ncccc3o2)c1` ?
Marked response: active

Exam item: Hello, I am checking results. What call was entered for `Cc1c(Cl)c([N+](=O)[O-])nn1CC(=O)Nc1c(C)n(C)n(-c2ccccc2)c1=O` ?
Marked response: inactive

Exam item: Hello, I am checking results. What call was entered for `Cc1oc(=O)c(NC(=O)c2ccccc2)cc1C(=O)c1ccccc1` ?
Marked response: inactive

Exam item: Hello, I am checking results. What call was entered for `Cc1ccc(C(N)=Nc2ccccc2)cc1` ?
Marked response: active

Exam item: Hello, I am checking results. What call was entered for `CCOC(=O)c1cc2sc(C)cc2n1CC(=O)N1CCN(C(=O)c2ccco2)CC1` ?
Marked response: inactive

Exam item: Hello, I am checking results. What call was entered for `COc1cccc(/C=N/NC(=O)CO/N=C(\C)c2cccs2)c1OC` ?
Marked response: inactive

###

molecular target: Cytochrome P450 2D6 (Homo sapiens) (UniProt P10635); assay: Cytochrome panel assay with activity outcomes; conditions: recombinant CYP, pro-luciferin dealkylation, luminescence, p450-cyp2d6; series mostly up to 57.1 µM
The campaign covered roughly 16,000 compounds. About 2,600 (16%) were called active. Roughly 20% stayed inconclusive and do not appear here. Calls follow the shape of the dose curve; as a rule, active = well fitted curve in the direction sought with a large enough effect; inconclusive = small, poorly fitted or top-dose-only effect, or effect the other way; inactive = no such curve, though single readings can be large or run the other way. Not all results are given here.
Select the matching outcome among active, inactive

The following compounds have reported results that may help.
CNc1ccnc(-c2ccccc2OC)n1 | active
CCOc1ccc(/C(O)=C2/C(=O)C(=O)N(CCOCCO)C2c2cccnc2)cc1 (stereo unspecified) | inactive
COc1ccccc1CNc1ncncc1-c1ccoc1 | active
COc1ccc(NC(=O)c2cc(S(=O)(=O)N3CCS(=O)(=O)CC3)ccc2Cl)cc1 | inactive
Cc1cc(C)c(C#N)c(Oc2ccc(F)cc2)n1 | inactive
Cc1cnc(CNc2ccnc(-c3ccccc3Cl)n2)cn1 | inactive
COc1ccccc1-c1nccc(NCc2cccc(C)c2)n1 | active
O=C1/C(=N\O)Cc2ccccc21 | inactive
Cc1c(C(=O)Nc2cccc(C(F)(F)F)c2)oc2ccc(S(=O)(=O)N3CCOCC3)cc12 | inactive
Cc1ccccc1-c1ccc2ncnc(N3CCN(C)CC3)c2c1 | inactive

Exam item: Hello, I am checking results. What call was entered for `COc1ccccc1CN1C(=O)c2ccncc2C1=O` ?
Marked response: inactive

Exam item: Hello, I am checking results. What call was entered for `C=CCSc1nc2c(sc3nc(C)cc(C)c32)c(=O)[nH]1` ?
Marked response: inactive

Exam item: Hello, I am checking results. What call was entered for `Cc1cccc(CNc2ccnc(-c3ccccc3Cl)n2)c1` ?
Marked response: active

Exam item: Hello, I am checking results. What call was entered for `CNc1ccnc(-c2ccccc2C(F)(F)F)n1` ?
Marked response: inactive

###

Target: Cytochrome P450 2D6 (Homo sapiens) (UniProt P10635)
Experiment: Cytochrome panel assay with activity outcomes
Conditions: recombinant CYP, pro-luciferin dealkylation, luminescence, p450-cyp2d6; series mostly up to 57.1 µM
Experimental: The P450 gene superfamily is involved in the metabolism and clearance of xenobiotics. This assay used various human CYP P450 isozymes to measure the dealkylation of various pro-luciferin substrates to luciferin. The luciferin is then measured by luminescence after the addition of a luciferase detection reagent. […] Inhibitors and some substrates limit the production of luciferin, and decrease measured luminescence. […] 8, Detection, 1 sec, ViewLux luminescent read […]
Among all 16,000 compounds or so, about 2,600 (16%) were called active. Roughly 20% stayed inconclusive and do not appear here. A selection follows.
recorded.metric: AC50

// worked examples, AC50 included
O=C(Nc1ccc(S(=O)(=O)N2CCOCC2)cc1)c1ccc(CN2CCc3ccccc3C2)cc1 | 178 nM (active)
O=C(CSc1ncccn1)Nc1ccc(S(=O)(=O)N2CCCCC2)cc1 | inactive
CN(C)S(=O)(=O)c1ccc(C(=O)Nc2ccc(CN3CCCC3)cc2)cc1 | 2510 nM (active)
CCN(CC)S(=O)(=O)c1ccc(C(=O)Nc2ncn(Cc3ccccc3)n2)cc1 | inactive
O=C(Nc1ccc(S(=O)(=O)N2CCCCC2)cc1)c1ccc(CN2CCc3ccccc3C2)cc1 | 251 nM (active)
O=C(Nc1ccc(S(=O)(=O)N2CCCC2)cc1)c1ccc(CN2CCOCC2)cc1 | 5010 nM (active)

Let's switch to this compound now.
Data point: COc1cccc(C2C3(C#N)C(N)=NC(OC)(OC)C23C#N)c1 (stereo not given) ; AC50 = inactive

###

biological target: Cytochrome P450 2D6 (Homo sapiens); experiment: Cytochrome panel assay with activity outcomes; conditions: recombinant CYP, pro-luciferin dealkylation, luminescence, p450-cyp2d6; series mostly up to 57.1 µM
The whole screen tested about 16,000 compounds, of which about 2,600 (16%) were called active. Not shown: some 20% with an inconclusive outcome. Calls follow the shape of the dose curve; as a rule, active = well fitted curve in the direction sought with a large enough effect; inconclusive = small, poorly fitted or top-dose-only effect, or effect the other way; inactive = no such curve, though single readings can be large or run the other way. A selection follows.
Select the matching outcome among active, inactive

The following molecules have reported results that may help.
COCCNC(=O)/C(C#N)=C/c1ccc(-c2ccc(OC)cc2[N+](=O)[O-])o1 | inactive
Cc1ccc(CSC(N)=Nc2ccccc2)cc1C | active
O=C(NCC1CCCO1)c1onc(CSc2ccccc2F)c1C(=O)O (centres undefined) | inactive

Then this molecule:
Exam item: Hello, I am checking results. What call was entered for `CCNc1ncc2nc(CCc3ccccc3)c(=O)n(-c3ccc(OC)cc3)c2n1` ?
Marked response: active

###

molecular target: Cytochrome P450 2D6 (Homo sapiens) (UniProt P10635); assay: Cytochrome panel assay with activity outcomes; conditions: recombinant CYP, pro-luciferin dealkylation, luminescence, p450-cyp2d6; series mostly up to 57.1 µM
Out of some 16,000 compounds screened, about 2,600 (16%) were called active. Inconclusive results (about 20%) are left out. Calls come from the whole dose curve; as a rule, active = well fitted curve in the direction sought with a large enough effect; inconclusive = small, poorly fitted or top-dose-only effect, or effect the other way; inactive = no such curve, though single readings can be large or run the other way. Only a sample is shown.
Select the matching outcome among yes (1) = active, no (0) = inactive

CCOC(=O)C1=C(c2ccccc2)OC(N)=C(C#N)C1c1ccc(Cl)s1 (configuration not stated) | no (0)
Cc1n[nH]c(=S)n1/N=C/c1ccccc1OCc1ccc(Cl)cc1 | no (0)

Exam item: Hello, I am checking results. What call was entered for CC1(C)SC(=S)N(NC(=O)Nc2ccccc2)C1N(O)C(=O)Nc1ccccc1 (configuration not stated) ?
Marked response: yes (1)

Exam item: Hello, I am checking results. What call was entered for `CCCCOC(=O)Nc1nc2ccccc2s1` ?
Marked response: no (0)

Exam item: Hello, I am checking results. What call was entered for `O=C(Nc1ccc2ccccc2c1)c1onc2c1CCCC2` ?
Marked response: no (0)

###

target: Cytochrome P450 2D6 (Homo sapiens) (UniProt P10635); test: Cytochrome panel assay with activity outcomes; conditions: recombinant CYP, pro-luciferin dealkylation, luminescence, p450-cyp2d6; series mostly up to 57.1 µM
In all, about 16,000 compounds went through this assay and about 2,600 (16%) were called active. Inconclusive results (about 20%) are left out. Calls follow the shape of the dose curve; as a rule, active = well fitted curve in the direction sought with a large enough effect; inconclusive = small, poorly fitted or top-dose-only effect, or effect the other way; inactive = no such curve, though single readings can be large or run the other way. A selection follows.
Select the matching outcome among 1 (yes) for active, 0 (no) for inactive

The following molecules have reported results that may help.
CNc1ncncc1-c1ccc(C(=O)N(C)C)cc1 | 0 (no)
COCCn1c(=O)cnc2cnc(Oc3ccc(OC)cc3)nc21 | 0 (no)
Cc1cc(C)cc(-n2nnnc2SCC(=O)Nc2nc(-c3ccc(F)cc3)cs2)c1 | 0 (no)

Exam item: Hello, I am checking results. What call was entered for `c1ccc(C[n+]2cccc(-c3cc4ccccc4[nH]3)c2)cc1` ?
Marked response: 1 (yes)

Exam item: Hello, I am checking results. What call was entered for `Cc1ccccc1/C=C1\OC(=O)c2ccccc21` ?
Marked response: 0 (no)

Exam item: Hello, I am checking results. What call was entered for `COc1ccc(NC(=O)N2CC[C@@]3(CCCN(C(=O)c4cc(C(F)(F)F)cc(C(F)(F)F)c4)C3)C2)cc1` ?
Marked response: 0 (no)

###

target: Cytochrome P450 2D6 (Homo sapiens) (UniProt P10635); test: Cytochrome panel assay with activity outcomes; details: recombinant CYP, pro-luciferin dealkylation, luminescence, p450-cyp2d6; series mostly up to 57.1 µM
Among all 16,000 compounds or so, about 2,600 (16%) were called active. Another 20% or so got no clear call; they are omitted. Calls follow the shape of the dose curve; as a rule, active = well fitted curve in the direction sought with a large enough effect; inconclusive = small, poorly fitted or top-dose-only effect, or effect the other way; inactive = no such curve, though single readings can be large or run the other way. Only a sample is shown.
Select the matching outcome among Yes (active), No (inactive)

The following molecules have reported results that may help.
Cc1ccc(C2Nc3ccccc3C(=O)N2Cc2ccco2)cc1 (stereo not drawn) | No
COc1ccccc1NC(=O)C(C/C=C(\C)Cl)C(C)=O (stereo not drawn) | No
CCOC(=O)c1cc(CC)sc1NC(=O)C(c1ccccc1)c1ccccc1 | No
O=C(NCc1ccco1)c1nc2c(nnn2Cc2cccc(Cl)c2)c(=O)[nH]1 | No
COc1ccc(N2CCN(C(=N)/C(C(C)=O)=C(\C)O)CC2)cc1 | No

Then this molecule:
Exam item: Hello, I am checking results. What call was entered for `O=C(O)c1ccccc1C(=O)NCc1ccc(F)cc1` ?
Marked response: No

Data origin, for the record: PubChem BioAssay AID1851
